system.under.test: human TLR8 (Homo sapiens (Human), UniProt Q9NR97)
Sequence (Q9NR97 27-1041): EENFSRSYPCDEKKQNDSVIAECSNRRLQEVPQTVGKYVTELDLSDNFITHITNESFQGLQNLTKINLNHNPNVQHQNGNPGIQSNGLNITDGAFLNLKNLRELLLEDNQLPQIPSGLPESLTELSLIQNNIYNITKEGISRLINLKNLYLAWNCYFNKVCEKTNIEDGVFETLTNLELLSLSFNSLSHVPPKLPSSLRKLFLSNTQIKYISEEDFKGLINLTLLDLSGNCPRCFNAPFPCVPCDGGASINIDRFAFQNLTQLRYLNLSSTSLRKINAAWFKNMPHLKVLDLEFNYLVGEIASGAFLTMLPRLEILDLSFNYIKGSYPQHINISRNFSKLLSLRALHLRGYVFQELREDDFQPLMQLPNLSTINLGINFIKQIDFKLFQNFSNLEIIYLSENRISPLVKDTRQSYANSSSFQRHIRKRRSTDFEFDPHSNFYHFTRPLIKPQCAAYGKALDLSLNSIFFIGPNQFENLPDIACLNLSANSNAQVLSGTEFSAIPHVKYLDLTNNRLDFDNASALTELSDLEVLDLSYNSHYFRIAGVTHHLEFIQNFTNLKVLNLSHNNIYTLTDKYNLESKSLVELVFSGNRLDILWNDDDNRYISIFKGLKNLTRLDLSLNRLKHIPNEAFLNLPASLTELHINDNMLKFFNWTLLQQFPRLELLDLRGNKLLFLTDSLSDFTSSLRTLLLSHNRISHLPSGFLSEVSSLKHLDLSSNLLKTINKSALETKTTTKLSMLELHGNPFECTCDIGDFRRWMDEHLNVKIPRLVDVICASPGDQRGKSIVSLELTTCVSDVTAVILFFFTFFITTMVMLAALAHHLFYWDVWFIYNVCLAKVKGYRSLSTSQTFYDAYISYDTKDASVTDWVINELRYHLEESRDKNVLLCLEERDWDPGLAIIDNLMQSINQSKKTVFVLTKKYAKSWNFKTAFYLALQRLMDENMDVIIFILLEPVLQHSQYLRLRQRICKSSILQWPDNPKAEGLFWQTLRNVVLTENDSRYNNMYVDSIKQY
test.protocol: TLR8 inhibition reporter assay (HEK-Blue SEAP)
measurement.conditions: read-out: TLR8 IC50; HEK-Blue cells overexpressing human TLR8, SEAP reporter, R848 15.9 μM
pIC50: −log10 of the molar value.
attribute.measured: pIC50

1) CCN(CC(=O)N(C)C)C1CCC(c2ccc3[nH]c(-c4cn5ncnc5c(C)c4C)c(C(C)C)c3n2)CC1 (stereo not shown) [Example 462]	8.08
2) COc1cc(-c2[nH]c3ccc(C4CC(NC(=O)CN(C)C)C4)nc3c2C(C)C)cn2ncnc12 (stereo not shown) [Example 638]	8.14
3) Cc1c(-c2[nH]c3ccc(C4CCC(N(C)CC5(S(C)(=O)=O)CC5)CC4)nc3c2C(C)C)cn2ncnc2c1C (stereo not shown) [Example 479]	8.00
4) CCN1CC2(C1)CN(c1ccc3[nH]c(-c4cn5ncnc5c(C)c4C)c(C(C)C)c3n1)C2 [Example 744]	8.15

----------
system.under.test: human TLR9 (Homo sapiens (Human), UniProt Q9NR96)
Sequence (Q9NR96 26-1032): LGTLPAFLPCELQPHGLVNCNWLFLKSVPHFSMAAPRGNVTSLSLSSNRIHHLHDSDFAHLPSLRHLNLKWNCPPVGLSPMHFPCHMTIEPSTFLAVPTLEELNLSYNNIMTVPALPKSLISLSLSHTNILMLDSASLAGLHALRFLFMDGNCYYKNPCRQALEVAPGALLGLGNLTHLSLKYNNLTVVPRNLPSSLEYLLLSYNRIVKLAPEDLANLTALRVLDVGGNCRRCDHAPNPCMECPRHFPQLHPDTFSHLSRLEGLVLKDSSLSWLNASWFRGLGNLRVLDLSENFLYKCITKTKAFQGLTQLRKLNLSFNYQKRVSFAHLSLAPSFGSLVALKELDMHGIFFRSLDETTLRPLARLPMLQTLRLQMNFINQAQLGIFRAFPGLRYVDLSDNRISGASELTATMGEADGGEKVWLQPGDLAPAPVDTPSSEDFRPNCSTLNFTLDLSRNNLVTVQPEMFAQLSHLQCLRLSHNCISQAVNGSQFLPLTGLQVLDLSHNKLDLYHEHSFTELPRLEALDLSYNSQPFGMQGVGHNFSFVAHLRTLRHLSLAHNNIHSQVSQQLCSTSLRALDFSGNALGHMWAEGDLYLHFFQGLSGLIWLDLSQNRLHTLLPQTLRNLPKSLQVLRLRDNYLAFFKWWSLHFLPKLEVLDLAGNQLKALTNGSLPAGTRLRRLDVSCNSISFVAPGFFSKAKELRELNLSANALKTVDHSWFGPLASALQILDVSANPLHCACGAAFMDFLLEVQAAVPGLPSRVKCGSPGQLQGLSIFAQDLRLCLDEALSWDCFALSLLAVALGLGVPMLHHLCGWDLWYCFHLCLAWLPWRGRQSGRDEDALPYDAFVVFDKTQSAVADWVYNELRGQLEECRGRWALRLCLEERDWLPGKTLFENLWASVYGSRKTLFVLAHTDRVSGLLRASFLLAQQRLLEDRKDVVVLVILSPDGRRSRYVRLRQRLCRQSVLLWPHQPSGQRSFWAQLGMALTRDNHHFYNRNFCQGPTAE
test.protocol: TLR9 inhibition reporter assay (HEK-Blue SEAP)
measurement.conditions: read-out: TLR9 IC50; HEK-Blue human TLR9 cells, ODN2006 5 nM
attribute.measured: IC50 (µM)

See these solved cases before continuing.
1. Cc1c(-c2[nH]c3ccc(N4CCN(CC(C)(C)O)C[C@@H]4C)nc3c2C(C)C)cn2ncnc2c1C	17.9
2. Cc1c(-c2[nH]c3ccc(N4C[C@H]5CC[C@@H]4CN5)nc3c2C(C)C)cn2ncnc2c1C	6.27
3. Cc1c(-c2[nH]c3ccc(N4C[C@@H](C)N(C(=O)CN5CC6(COC6)C5)[C@H](C)C4)nc3c2C(C)C)cn2ncnc2c1C	5.09

(P) Cc1c(-c2[nH]c3ccc(N4CC5(CN(CCC#N)C5)C4)nc3c2C(C)C)cn2ncnc2c1C
(Q) Cc1c(-c2[nH]c3ccc(N4CCN(C(=O)CNC(C)C)C[C@@H]4C)nc3c2C(C)C)cn2ncnc2c1C
**Query** Please indicate which has the smaller reported IC50: P , or Q . Pick one and reply with its label.
**Result** Q

----------
system.under.test: human TLR7 (Homo sapiens (Human), UniProt Q9NYK1)
Sequence (Q9NYK1 27-1049): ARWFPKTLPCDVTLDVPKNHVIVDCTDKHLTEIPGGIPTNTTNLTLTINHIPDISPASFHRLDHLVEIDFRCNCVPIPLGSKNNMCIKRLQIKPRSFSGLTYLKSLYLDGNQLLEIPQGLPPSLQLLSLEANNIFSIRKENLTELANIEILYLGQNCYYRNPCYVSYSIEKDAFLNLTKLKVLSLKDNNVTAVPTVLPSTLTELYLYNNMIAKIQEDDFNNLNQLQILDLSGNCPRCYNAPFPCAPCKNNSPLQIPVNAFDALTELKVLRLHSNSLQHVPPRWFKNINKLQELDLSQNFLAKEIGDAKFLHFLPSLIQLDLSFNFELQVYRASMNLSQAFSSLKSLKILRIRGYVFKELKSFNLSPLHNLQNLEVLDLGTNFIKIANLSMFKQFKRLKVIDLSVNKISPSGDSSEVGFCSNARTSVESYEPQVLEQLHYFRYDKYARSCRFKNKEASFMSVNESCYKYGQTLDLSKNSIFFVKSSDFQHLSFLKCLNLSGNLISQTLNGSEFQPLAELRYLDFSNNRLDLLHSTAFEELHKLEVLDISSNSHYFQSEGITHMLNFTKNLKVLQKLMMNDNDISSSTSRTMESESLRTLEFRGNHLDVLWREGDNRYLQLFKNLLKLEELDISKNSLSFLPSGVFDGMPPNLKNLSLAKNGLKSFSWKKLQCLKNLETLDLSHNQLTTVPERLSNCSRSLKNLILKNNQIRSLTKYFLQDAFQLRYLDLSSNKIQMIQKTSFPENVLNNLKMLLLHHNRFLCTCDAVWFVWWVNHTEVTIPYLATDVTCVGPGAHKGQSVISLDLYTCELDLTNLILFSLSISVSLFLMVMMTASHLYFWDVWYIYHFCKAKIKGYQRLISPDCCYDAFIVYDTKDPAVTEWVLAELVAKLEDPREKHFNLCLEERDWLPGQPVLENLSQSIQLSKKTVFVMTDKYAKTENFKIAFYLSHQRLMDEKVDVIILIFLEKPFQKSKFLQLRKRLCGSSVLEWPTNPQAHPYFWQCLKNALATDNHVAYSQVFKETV
test.protocol: TLR7 inhibition reporter assay (HEK-Blue SEAP)
Type: cell-based
measurement.conditions: HEK-Blue cells overexpressing human TLR7, gardiquimod 7.5 μM stimulation, SEAP reporter
attribute.measured: IC50 (nM)

1) COc1cc(-c2[nH]c3ccc(N4CCN(CC#N)CC4)nc3c2C(C)C)cn2ncnc12	1
2) CC(C)c1c(-c2cn(CC#N)c3ncccc23)[nH]c2ccc(C3CCC(NC4CCOCC4)CC3)nc12 (stereo not shown)	94

(1) COc1cc(-c2[nH]c3cc(C)c(C4CCC(N5CC6(COC6)C5)CC4)nc3c2C(C)C)cn2ncnc12 (stereo not shown) [Example 317]
(2) CNC1CCC(c2ccc3[nH]c(-c4cn(C)c5ncncc45)c(C(C)C)c3n2)CC1 (stereo not shown) [Example 296]
**Query** Please indicate which has the smaller reported IC50: 1 , or 2 . Label of pick, please.
**Result** 2

(A) CC(C)c1c(-c2cn(CCS(C)(=O)=O)c3ncccc23)[nH]c2ccc(C3CCC(NCC4(S(C)(=O)=O)CC4)CC3)nc12 (stereo not shown) [Example 259]
(B) CC(C)c1c(-c2cn(C)c3ncccc23)[nH]c2ccc(C3CCC(NC4CCOCC4)CC3)nc12 (stereo not shown) [Example 265]
(C) Cc1cc(-c2[nH]c3ccc(C4CCC(NCC(=O)N(C)C)CC4)nc3c2C(C)C)cn2ncnc12 (stereo not shown)
(D) Cc1c(-c2[nH]c3ccc(N4CCN(CCN5CCOCC5)C(=O)C4)nc3c2C(C)C)cn2ncnc2c1C [Example 155]
**Query** Parameters: sort_field (IC50), sort_dir (desc). List the labels, following the order given in the request.
**Result** D, A, C, B

(1) CC(C)c1c(-c2cn(C)c3ncccc23)[nH]c2ccc(N3CCC(NCCS(C)(=O)=O)CC3)nc12
(2) COc1cc(-c2[nH]c3ccc(N4CCN(CCC(F)(F)F)CC4)nc3c2C(C)C)cn2ncnc12
**Query** Response body: label of entry with the larger IC50; valid values 1 , 2 . Pick one; state its label.
**Result** 2
(2: 9.7 nM, 1: 0.62 nM)

----------
system.under.test: human TLR9 (Homo sapiens (Human), UniProt Q9NR96)
test.protocol: TLR9 inhibition reporter assay (HEK-Blue SEAP)
measurement.conditions: read-out: TLR9 IC50; HEK-Blue cells overexpressing human TLR9, SEAP reporter, ODN2006 5 nM
attribute.measured: IC50 (nM)

1. Cc1c(-c2[nH]c3ccc(C4CCC(N)CC4)nc3c2C(C)C)cn2ncnc2c1C (centres unmarked) [Example 469]	1710

(A) Cc1cc(-c2[nH]c3ccc(C4CCN(C5CCOCC5)CC4)nc3c2C(C)C)cn(C)c1=O
(B) Cc1ncc(CN(C)C2CCC(c3ccc4[nH]c(-c5cn6ncnc6c(C)c5C)c(C(C)C)c4n3)CC2)cn1 (centres unmarked)
**Query** Between these two entries, A and B , state which has the higher IC50. To answer, give the label that identifies your chosen option.
**Result** B

----------
system.under.test: human TLR8 (Homo sapiens (Human), UniProt Q9NR97)
test.protocol: TLR8 inhibition reporter assay (HEK-Blue SEAP);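 note: SEAP driven by IFN-β minimal promoter carrying NF-κB and AP-1 sites, compounds dosed 0.05 nM to 50 µM for 22 h, inhibition scaled between agonist-plus-DMSO and reference-inhibitor wells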
measurement.conditions: read-out: TLR8 IC50; HEK-Blue human TLR8 cells, R848 15.9 μM
pIC50: −log10 of the molar value.
attribute.measured: pIC50

1) Cc1c(-c2[nH]c3ccc(N4C[C@@H](C)N(C(=O)CN(C)C)[C@@H](C)C4)nc3c2C(C)C)cn2ncnc2c1C	8.66
2) Cc1c(-c2[nH]c3ccc(N4CCN(CCS(C)(=O)=O)C[C@@H]4C)nc3c2C(C)C)cn2ncnc2c1C	8.54
3) COc1cc(-c2[nH]c3ccc(C4CCC(N5CCC(F)C5)CC4)nc3c2C(C)C)cn2ncnc12 (stereo not shown) [Example 1067]	8.35
4) Cc1c(-c2[nH]c3ccc(N4CC5(C4)CN(C(C)C)C5)nc3c2C(C)C)cn2ncnc2c1C	8.43

----------
system.under.test: human TLR9 (Homo sapiens (Human))
test.protocol: TLR9 inhibition reporter assay (HEK-Blue SEAP)
measurement.conditions: read-out: TLR9 IC50; HEK-Blue cells overexpressing human TLR9, SEAP reporter, ODN2006 5 nM
pIC50: −log10 of the molar value.
attribute.measured: pIC50

Example results:
1. COc1cc(-c2[nH]c3cc(C)c(C4CCN(C5COC5)CC4)nc3c2C(C)C)cn2ncnc12	5.74
2. Cc1c(-c2[nH]c3ccc(C4CCC(N(CC#N)CCS(C)(=O)=O)CC4)nc3c2C(C)C)cn2ncnc2c1C (stereo not drawn) [Example 457]	6.21

(1) COc1cc(-c2[nH]c3ccc(OCC4CN(C(C)C)C4)nc3c2C(C)C)cn2ncnc12
(2) Cc1c(-c2[nH]c3ccc(C4CC(N(C)C)C4)nc3c2C(C)C)cn2ncnc2c1C (stereo not drawn) [Example 618]
**Query** Hey, which is lower on measured pIC50, 1 or 2 ? Field: selected label. Fill in the label of the entry you choose.
**Result** 2
(2: 5.43, 1: 5.65)

----------
system.under.test: UniProt Q9NR97
test.protocol: TLR8 inhibition reporter assay (HEK-Blue SEAP)
measurement.conditions: read-out: TLR8 IC50; HEK-Blue human TLR8 cells, R848 15.9 μM
attribute.measured: IC50 (nM)

1. Cc1c(-c2[nH]c3ccc(N4CCN(C(=O)CN5CC6(COC6)C5)CC4)nc3c2C(C)C)cn2ncnc2c1C	974

(a) Cc1c(-c2[nH]c3ccc(N4C[C@@H](C)N(C(=O)CN(C)C)C[C@@H]4C)nc3c2C(C)C)cn2ncnc2c1C
(b) Cc1c(-c2[nH]c3ccc(NCCNC(=O)CN(C)C)nc3c2C(C)C)cn2ncnc2c1C
**Query** Of the two listed items, which has the higher IC50? First: a Second: b Return value: the label identifying the chosen record.
**Result** b
(b: 4.6 nM, a: 0.47 nM)

----------
system.under.test: UniProtKB Q9NR96
test.protocol: TLR9 inhibition reporter assay (HEK-Blue SEAP)
measurement.conditions: read-out: TLR9 IC50; HEK-Blue cells overexpressing human TLR9, SEAP reporter, ODN2006 5 nM
pIC50: −log10 of the molar value.
attribute.measured: pIC50

1) CCN(CC)C1CCC(c2ccc3[nH]c(-c4cn5ncnc5c(C)c4C)c(C(C)C)c3n2)CC1 (centres unmarked) [Example 411]	5.64
2) Cc1c(-c2[nH]c3ccc(C4CCN(C(=O)CN(C)C)CC4)nc3c2C(C)C)cn2ncnc2c1C [Example 551]	6.24
3) Cc1c(-c2[nH]c3ccc(C4CCC(N(CCO)CCS(C)(=O)=O)CC4)nc3c2C(C)C)cn2ncnc2c1C (centres unmarked) [Example 461]	5.07
4) COc1cc(-c2[nH]c3ccc(C4CN(C5CCOCC5)CCO4)nc3c2C(C)C)cn2ncnc12 (centres unmarked) [Example 659]	5.07
5) Cc1c(-c2[nH]c3ccc(C4CCC(N(CC#N)CCS(C)(=O)=O)CC4)nc3c2C(C)C)cn2ncnc2c1C (centres unmarked) [Example 458]	5.01

(1) Cc1c(-c2[nH]c3ccc(N4CC5(CN(C(=O)CN(C)C)C5)C4)nc3c2C(C)C)cn2ncnc2c1C [Example 743]
(2) COc1cc(-c2[nH]c3ccc(OCC4CCN(C)CC4)nc3c2C(C)C)cn2ncnc12 [Example 590]
**Query** Lab note: check whether 1 or 2 has the lower measured pIC50. Choose, then provide that item's label.
**Result** 2
